Here we list compounds with their recorded IC50 when tested on HCV RdRp (NS5B).

>>> reading("Cc1ccc(NC(=O)[C@H](CCCCN)NC(=O)Nc2ccc(OCc3cc(F)ccc3F)cc2)cc1 [Compound 286]")
"< 10 µM"
>>> reading("Cc1ccc(NC(=O)C(CCCCN)NC(=O)CNCc2cccc(C)c2)cc1 (stereo not shown) [Compound 339]")
"> 50 µM"
>>> reading("CC(C)NC(=O)[C@H](CCCCN)NC(=O)Nc1ccc(OCc2ccccc2)cc1 [Compound 291]")
"> 50 µM"
>>> reading("CCCCOc1ccc(S(=O)(=O)N[C@@H](CCCCN)C(=O)Nc2ccc(C)cc2)cc1 [Compound 390]")
"> 50 µM"
>>> reading("Cc1ccc(NC(=O)C(CCN)NC(=O)OCC2c3ccccc3-c3ccccc32)cc1 (stereo not shown) [Compound 108]")
"> 50 µM"
>>> reading("Cc1ccc(NC(=O)[C@H](CCCCN)NC(=O)Nc2ccc(OCc3c(F)cccc3F)cc2)cc1 [Compound 287]")
"10 to 50 µM"

So what does the record say about IC50 for NC(Cc1ccccc1)C(=O)Nc1ccc(CN(C(=O)c2ccco2)C2CCCCC2)cc1 (stereo in doubt) [Compound 11] ?
> 50 µM

And for Cc1ccc(NC(=O)C(CCCCN)NC(=O)c2c(C)ccc3ccccc23)cc1 (stereo not shown) [Compound 63] ?
> 50 µM

What do you have for Cc1ccc(NC(=O)C(CCCCN)NC(=O)NC(C)c2cccc3ccccc23)cc1 (stereo not shown) [Compound 97] ?
> 50 µM

Also Cc1ccc(NC(=O)C2CC(OC(=O)CN)CN2C(=O)OCC2c3ccccc3-c3ccccc32)cc1 (stereo not shown) [Compound 131] , if possible.
> 50 µM

====

The next entries give measured IC50 for HCV RdRp (NS5B) (UniProt P26663).

Consider the reported IC50 for these compounds:
>>> reading("Cc1ccc(NC(=O)C(CCCCN)NC(=O)CN(C)Cc2ccccc2)cc1 (centres unmarked) [Compound 353]")
"> 50 µM"
>>> reading("Cc1ccc(NC(=O)[C@H](CCCCN)NCc2ccc(NC(=O)Nc3ccncc3)cc2)cc1 [Compound 262]")
"< 10 µM"
>>> reading("Cc1cc2cc(NC(=O)[C@H](Cc3ccc(CN)cc3)NC(=O)Nc3ccc4c(c3)Cc3ccccc3-4)ccc2[nH]1 [Compound 235]")
"< 10 µM"
>>> reading("O=C(CC1CNCCN1C(=O)Nc1ccc(-c2ccccc2)cc1)Nc1ccc(C2CCCCC2)cc1 (centres unmarked) [Compound 161]")
"10 to 50 µM"
>>> reading("NCCCC[C@@H](NC(=O)NC1c2ccccc2-c2ccccc21)C(=O)Nc1ccc(C2CCCCC2)cc1 [Compound 195]")
"< 10 µM"

Please report the recorded IC50 for CC(C)(C)OC(=O)NCCCC[C@H](NC(=O)OCC1c2ccccc2-c2ccccc21)C(=O)NCCc1c[nH]c2ccccc12 [Compound 56] .
> 50 µM

Okay, and CNCC(=O)NCCCC(NC(=O)OCC1c2ccccc2-c2ccccc21)C(=O)Nc1ccc(C)cc1 (centres unmarked) [Compound 223] ?
10 to 50 µM

Another compound to look at: Cc1ccc(NC(=O)C(CCC(=O)O)NC(=O)OCC2c3ccccc3-c3ccccc32)cc1 (centres unmarked) [Compound 372]
> 50 µM

====

Biological target: HCV RdRp (NS5B) (UniProt P26663)
Sequence (P26663 whole entry, looked up): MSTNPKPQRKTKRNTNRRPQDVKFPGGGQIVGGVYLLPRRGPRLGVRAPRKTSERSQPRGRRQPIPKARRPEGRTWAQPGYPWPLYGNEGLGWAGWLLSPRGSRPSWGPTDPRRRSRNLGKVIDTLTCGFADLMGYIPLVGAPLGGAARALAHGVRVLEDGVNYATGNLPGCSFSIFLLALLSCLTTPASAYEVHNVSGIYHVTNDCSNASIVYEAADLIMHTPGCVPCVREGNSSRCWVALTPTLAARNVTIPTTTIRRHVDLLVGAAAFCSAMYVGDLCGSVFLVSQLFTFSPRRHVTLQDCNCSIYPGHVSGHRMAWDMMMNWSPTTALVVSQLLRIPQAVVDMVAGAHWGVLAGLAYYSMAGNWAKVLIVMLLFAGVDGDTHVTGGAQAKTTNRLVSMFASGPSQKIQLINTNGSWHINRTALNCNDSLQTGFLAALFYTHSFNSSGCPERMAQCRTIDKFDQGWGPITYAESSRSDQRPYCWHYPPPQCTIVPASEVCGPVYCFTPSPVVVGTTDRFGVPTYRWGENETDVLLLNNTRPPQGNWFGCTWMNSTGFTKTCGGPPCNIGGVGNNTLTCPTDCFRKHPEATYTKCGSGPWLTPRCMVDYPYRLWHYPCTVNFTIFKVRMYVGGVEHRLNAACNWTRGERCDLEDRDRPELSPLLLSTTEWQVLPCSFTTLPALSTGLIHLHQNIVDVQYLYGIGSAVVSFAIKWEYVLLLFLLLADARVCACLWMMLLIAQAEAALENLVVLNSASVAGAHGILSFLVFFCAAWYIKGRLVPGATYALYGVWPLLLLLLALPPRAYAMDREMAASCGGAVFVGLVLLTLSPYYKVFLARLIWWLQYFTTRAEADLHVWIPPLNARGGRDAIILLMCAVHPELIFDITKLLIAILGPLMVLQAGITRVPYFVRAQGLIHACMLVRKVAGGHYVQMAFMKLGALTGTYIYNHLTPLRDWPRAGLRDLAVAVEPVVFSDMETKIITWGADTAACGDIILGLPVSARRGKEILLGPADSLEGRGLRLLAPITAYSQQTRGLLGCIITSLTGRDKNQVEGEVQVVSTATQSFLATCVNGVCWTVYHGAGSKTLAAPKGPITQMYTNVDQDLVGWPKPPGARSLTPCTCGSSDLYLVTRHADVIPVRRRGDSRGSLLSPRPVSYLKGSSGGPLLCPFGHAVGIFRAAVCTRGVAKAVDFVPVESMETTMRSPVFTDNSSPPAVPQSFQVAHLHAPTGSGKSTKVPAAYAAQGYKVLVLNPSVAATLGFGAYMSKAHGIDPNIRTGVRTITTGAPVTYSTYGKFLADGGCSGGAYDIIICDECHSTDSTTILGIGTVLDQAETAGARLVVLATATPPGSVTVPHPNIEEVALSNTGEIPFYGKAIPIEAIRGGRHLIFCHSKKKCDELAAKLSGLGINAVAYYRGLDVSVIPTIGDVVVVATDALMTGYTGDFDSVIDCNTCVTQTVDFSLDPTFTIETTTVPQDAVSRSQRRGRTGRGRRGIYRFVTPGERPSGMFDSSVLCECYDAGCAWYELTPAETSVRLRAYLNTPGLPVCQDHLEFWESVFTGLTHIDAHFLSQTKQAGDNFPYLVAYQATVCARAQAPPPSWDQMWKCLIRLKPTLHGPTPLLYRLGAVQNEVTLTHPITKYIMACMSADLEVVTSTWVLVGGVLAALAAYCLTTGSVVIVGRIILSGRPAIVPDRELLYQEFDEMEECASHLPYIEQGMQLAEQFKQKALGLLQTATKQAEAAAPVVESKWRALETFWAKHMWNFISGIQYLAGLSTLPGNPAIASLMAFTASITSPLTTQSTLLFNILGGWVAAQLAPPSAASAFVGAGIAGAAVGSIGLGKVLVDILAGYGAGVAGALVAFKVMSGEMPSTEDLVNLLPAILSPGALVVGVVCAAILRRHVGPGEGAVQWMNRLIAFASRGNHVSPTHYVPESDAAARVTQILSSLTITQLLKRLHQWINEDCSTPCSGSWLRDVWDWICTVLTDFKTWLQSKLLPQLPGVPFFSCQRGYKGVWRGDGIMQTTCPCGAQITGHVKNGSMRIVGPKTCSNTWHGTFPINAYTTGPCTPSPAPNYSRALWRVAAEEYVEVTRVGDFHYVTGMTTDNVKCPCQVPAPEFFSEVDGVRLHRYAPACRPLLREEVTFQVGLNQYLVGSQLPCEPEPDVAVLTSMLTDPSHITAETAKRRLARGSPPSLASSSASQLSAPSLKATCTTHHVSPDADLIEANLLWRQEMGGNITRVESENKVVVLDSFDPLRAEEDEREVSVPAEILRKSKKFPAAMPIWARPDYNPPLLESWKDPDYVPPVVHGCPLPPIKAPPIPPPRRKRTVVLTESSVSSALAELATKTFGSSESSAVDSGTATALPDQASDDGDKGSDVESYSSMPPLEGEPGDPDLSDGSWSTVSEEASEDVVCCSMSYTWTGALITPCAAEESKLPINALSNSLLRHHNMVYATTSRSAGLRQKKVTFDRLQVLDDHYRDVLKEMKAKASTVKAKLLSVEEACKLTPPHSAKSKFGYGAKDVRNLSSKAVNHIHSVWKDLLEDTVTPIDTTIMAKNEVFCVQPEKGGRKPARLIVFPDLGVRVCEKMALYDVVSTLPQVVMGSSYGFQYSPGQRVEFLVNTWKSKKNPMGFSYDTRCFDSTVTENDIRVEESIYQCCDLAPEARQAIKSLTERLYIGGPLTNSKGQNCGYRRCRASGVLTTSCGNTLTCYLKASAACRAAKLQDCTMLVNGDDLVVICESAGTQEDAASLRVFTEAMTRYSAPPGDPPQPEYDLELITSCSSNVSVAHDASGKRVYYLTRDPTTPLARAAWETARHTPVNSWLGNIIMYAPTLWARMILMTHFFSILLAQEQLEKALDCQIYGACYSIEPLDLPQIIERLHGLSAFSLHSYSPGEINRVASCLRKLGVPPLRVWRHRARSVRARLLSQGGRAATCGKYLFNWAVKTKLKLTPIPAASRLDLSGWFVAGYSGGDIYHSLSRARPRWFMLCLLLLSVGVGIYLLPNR
PARAMETER: IC50

Check out these entries, answers already filled in.
>>> reading("Cc1ccc(NC(=O)[C@@H](CCCCN)NC(=O)OCC2c3ccccc3-c3ccccc32)cc1")
"10 to 50 µM"
>>> reading("Cc1ccc(NC(=O)[C@H](CCCCN)NS(=O)(=O)c2ccc(Cl)c(Cl)c2)cc1")
"> 50 µM"

# query: IC50 of entry Cc1ccc(NC(=O)C(CCCCN)NC(=O)CCc2c[nH]c3ccccc23)cc1 (stereo not drawn)
> 50 µM

Another compound to check: Cc1ccc(NC(=O)C(CCCCN)NC(=O)Nc2ccc(CN(C)c3ccc(C)cc3)cc2)cc1 (stereo not drawn)
> 50 µM

Another compound to check: "Cc1ccc(NC(=O)[C@@H](CCCN)NC(=O)Nc2ccc3c(c2)Cc2ccccc2-3)cc1"
< 10 µM
